Target: human Claudin18.2 (human)
Assay: cell-based or functional assay
Please go through the items and note down their CDC EC50.
The response must be a number in µg/mL with no trailing unit.

# CDC EC50 lookup, item chimeric 203A6C9 (antibody, human IgG1, kappa, V domains shown, chimeric, human IgG1/kappa constant regions) VH: QVQLKQSGPGLVQPSQSLSITCTVSGFSLTRYGVHWVRQSPGKGLEWLGVIWSGGNTDYNAAFISRLNIRKDNSKSQVFFKMNSLKPNDTAIYYCARAAYFGNSFDYWGQGTTLTVSS VL: DIVMTQSPSSLPVTAGEKVTMSCKSSQSLLNSGNQKNYLTWYQQKPGQPPKLLIYWASTRDSGVPDRFTGSGSGTDFTLTISSVQAEDLAVYYCQNNYIYPLTFGAGTKLELKR
0.261

Then chimeric 194D3B2 (antibody, human IgG1, kappa, V domains shown, chimeric, human IgG1/kappa constant regions) VH: QAYLQQSGAELVRSGASVKMSCKASGYPFTSYNMHWVKQTPGQGLEWVGYIYPGNGGTNYNQKFRDKATLTADTSSSTAYMQISRLTSDDSAVYFCLTGRGFAYWGQGTLVTVSA VL: DIVMTQSPSSLIVTPGERVTMSCKSSQSLLNSGNQKNYLTWYQQKPGQPPKLLIYRASTRESGVPDRFTGSGSGTDFTLTISSVQAEDLAVYYCQNDYSYPLTFGIGTKLELKR ?
0.34

Also need chimeric 207F8G5 (antibody, human IgG1, kappa, V domains shown, chimeric, human IgG1/kappa constant regions; also called 207F8G5-Chimeric) VH: QAYLQQSGAELVRSGASVKMSCKASGFTFTSYNIHWVKQTPGQGLEWIGYISPGNGGSNYNLKFKDKATLTSATSSSTAYMQISSLTSEDSAVYFCATGRGFAYWGQGTLVTVSA VL: DIVMTQSPSSLTVTPGEKVTMSCKSSQSLFNSGNQKNYLIWYQQKPGQPPKLLIYRASTRDSGVPDRFTGSGSGTDFTLTISNVQAEDLAIYYCQNDYSYPLTFGAGTKLELKR , thanks.
0.207
